assay: Metabolic stability in rat liver microsome assessed as parent compound remaining measured at 5 mins; assay type: ADME; settings: liver microsomes, read-out: Stability
assay.readout: remaining at 5 min

What remaining at 5 min value was documented for this compound, `CCCNNC(=O)c1ccc(CNC(=O)c2ncc(CNc3ccccc3)s2)cc1` ?
79.9%

* * *

assay: Clearance in Sprague-Dawley rat at 2 mg/kg, iv measured up to 12 hrs by LC-MS/MS analysis; type: ADME, organism-based; conditions: in vivo
assay.readout: clearance (mL/min/kg)
Write the value in mL/min/kg as a bare number.

What clearance value was documented for this compound, `CCCNNC(=O)c1ccc(CNC(=O)c2ncc(CNc3ccccc3)s2)cc1` ?
64.5

Source of measurements: ChEMBL document CHEMBL5523759
